target: Aromatase (Homo sapiens); assay: Inhibition of cytochrome P450 19A1 aromatase from human placental microsomes
Sequence (P11511 whole entry): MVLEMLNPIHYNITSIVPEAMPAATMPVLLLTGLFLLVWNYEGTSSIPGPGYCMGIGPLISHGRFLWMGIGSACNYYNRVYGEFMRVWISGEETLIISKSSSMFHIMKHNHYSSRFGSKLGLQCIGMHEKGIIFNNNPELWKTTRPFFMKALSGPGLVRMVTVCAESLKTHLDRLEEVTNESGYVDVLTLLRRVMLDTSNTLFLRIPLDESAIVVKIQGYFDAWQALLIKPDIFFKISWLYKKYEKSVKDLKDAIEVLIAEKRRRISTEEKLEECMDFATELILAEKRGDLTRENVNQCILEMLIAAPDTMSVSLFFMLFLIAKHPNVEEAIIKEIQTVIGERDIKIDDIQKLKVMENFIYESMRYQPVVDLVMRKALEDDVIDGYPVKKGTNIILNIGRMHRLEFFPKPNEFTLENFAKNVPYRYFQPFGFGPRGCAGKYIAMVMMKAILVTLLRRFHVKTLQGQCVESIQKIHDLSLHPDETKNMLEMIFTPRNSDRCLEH
Reported IC50 is given for each of the following compounds.
Give the quantity in nM, number only.

Worked examples follow.
Compound	Tested system	IC50 (nM)
CC12CCC3C(Cc4nn(Cc5ccc([N+](=O)[O-])cc5)c5c4C3(C)CCC5=O)C1CCC2=O (stereo unspecified)	Aromatase (Homo sapiens)	658
CC12CCC3C(Cc4c5c(nn4Cc4ccc([N+](=O)[O-])cc4)C(=O)CCC53C)C1CCC2=O (stereo unspecified)	Aromatase (Homo sapiens)	490
CC12CCC3C(Cc4c5c(nn4Cc4ccccc4)C(=O)CCC53C)C1CCC2=O (stereo unspecified)	Aromatase (Homo sapiens)	245
CC12CCC3C(Cc4c5c(nn4C/C=C/c4ccccc4)C(=O)CCC53C)C1CCC2=O (stereo unspecified)	Aromatase (Homo sapiens)	950
CC12CCC3C(Cc4nn(Cc5ccccc5)c5c4C3(C)CCC5=O)C1CCC2=O (stereo unspecified)	Aromatase (Homo sapiens)	342

# input for lookup
# lookup: IC50 of CC12CCC3C(Cc4[nH]nc5c4C3(C)CCC5=O)C1CCC2=O (stereo unspecified)
236
